Tested on: ATP;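 note: ATP exposure 15 min at 22 °C before imaging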
Test: switch fluorescence ratio, 500 uM ATP over buffer (Cy3 cluster intensity, sum of 5 cycles each) (fold (ratio)); higher = stronger signal-on switching upon ATP binding; sequences stand for … in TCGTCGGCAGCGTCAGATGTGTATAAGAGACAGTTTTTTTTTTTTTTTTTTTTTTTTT…TC
Conditions: aptamer strand: ATP DNA aptamer (quencher-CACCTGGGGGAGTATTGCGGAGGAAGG + anchor), 100 nM annealed; ATP concentration: 500 uM
OBSERVABLE: switch fluorescence ratio

[[record]]
seq_string = "CGATTTTTTG"
reported_result = 1

[[record]]
seq_string = "CGTTTGGGCC"
reported_result = 1.01

[[record]]
seq_string = "ACGTGTGAC"
reported_result = 1

[[record]]
seq_string = "CGTGGGTAAG"
reported_result = 1.02

[[record]]
seq_string = "TGGATCTTCG"
reported_result = 0.99

[[record]]
seq_string = "ATGTGTTTTT"
reported_result = 0.98

[[record]]
seq_string = "GAGGACGGGG"
reported_result = 1.01

[[record]]
seq_string = "CATGGGAAGG"
reported_result = 0.997

[[record]]
seq_string = "TTGAGTCATG"
reported_result = 0.978

[[record]]
seq_string = "GGGGGCTTGG"
reported_result = 0.998

[[record]]
seq_string = "CTTTTTCTTT"
reported_result = 1.01

[[record]]
seq_string = "AGTCATCGGC"
reported_result = 1.01

[[record]]
seq_string = "TGAGCAGGTT"
reported_result = 1.02

[[record]]
seq_string = "GCTTGAGGAA"
reported_result = 0.982

[[record]]
seq_string = "CGGTAAATAA"
reported_result = 1.01

[[record]]
seq_string = "CAAGATTGCC"
reported_result = 1

[[record]]
seq_string = "GTGGAAAATT"
reported_result = 0.987

[[record]]
seq_string = "GAGTATAAGC"
reported_result = 0.984

[[record]]
seq_string = "TCGGGGTCGT"
reported_result = 0.986

[[record]]
seq_string = "CTGGTTACGG"
reported_result = 1.01

[[record]]
seq_string = "AATTTTGATG"
reported_result = 0.971

[[record]]
seq_string = "TTCTCGAGTT"
reported_result = 0.992

[[record]]
seq_string = "ATATTGAGAT"
reported_result = 0.998

[[record]]
seq_string = "TGGGGCGAAG"
reported_result = 1.01

[[record]]
seq_string = "TTTGTTTTAT"
reported_result = 1

[[record]]
seq_string = "GGGAATAGCG"
reported_result = 0.977

[[record]]
seq_string = "AGATTGGATA"
reported_result = 1.01

[[record]]
seq_string = "CTATGAGTGA"
reported_result = 1.01

[[record]]
seq_string = "ACTTTTGGGG"
reported_result = 1.01

[[record]]
seq_string = "TTGATGCGGA"
reported_result = 0.971

[[record]]
seq_string = "ACATTAGTGG"
reported_result = 1.01

[[record]]
seq_string = "GTATGGGATA"
reported_result = 1.01

[[record]]
seq_string = "GGAATGTTAG"
reported_result = 0.986

[[record]]
seq_string = "AAAGGGCGCA"
reported_result = 1.02

[[record]]
seq_string = "TACTTATGGA"
reported_result = 0.984

[[record]]
seq_string = "TTGGACATTT"
reported_result = 0.999

[[record]]
seq_string = "AAGCATTTGT"
reported_result = 0.998

[[record]]
seq_string = "AGCTATCAGC"
reported_result = 1.01

[[record]]
seq_string = "CATTAGTTTC"
reported_result = 1

